subjectOfTest: Cytosolic phospholipase A2 (Homo sapiens)
Sequence (P47712 whole entry): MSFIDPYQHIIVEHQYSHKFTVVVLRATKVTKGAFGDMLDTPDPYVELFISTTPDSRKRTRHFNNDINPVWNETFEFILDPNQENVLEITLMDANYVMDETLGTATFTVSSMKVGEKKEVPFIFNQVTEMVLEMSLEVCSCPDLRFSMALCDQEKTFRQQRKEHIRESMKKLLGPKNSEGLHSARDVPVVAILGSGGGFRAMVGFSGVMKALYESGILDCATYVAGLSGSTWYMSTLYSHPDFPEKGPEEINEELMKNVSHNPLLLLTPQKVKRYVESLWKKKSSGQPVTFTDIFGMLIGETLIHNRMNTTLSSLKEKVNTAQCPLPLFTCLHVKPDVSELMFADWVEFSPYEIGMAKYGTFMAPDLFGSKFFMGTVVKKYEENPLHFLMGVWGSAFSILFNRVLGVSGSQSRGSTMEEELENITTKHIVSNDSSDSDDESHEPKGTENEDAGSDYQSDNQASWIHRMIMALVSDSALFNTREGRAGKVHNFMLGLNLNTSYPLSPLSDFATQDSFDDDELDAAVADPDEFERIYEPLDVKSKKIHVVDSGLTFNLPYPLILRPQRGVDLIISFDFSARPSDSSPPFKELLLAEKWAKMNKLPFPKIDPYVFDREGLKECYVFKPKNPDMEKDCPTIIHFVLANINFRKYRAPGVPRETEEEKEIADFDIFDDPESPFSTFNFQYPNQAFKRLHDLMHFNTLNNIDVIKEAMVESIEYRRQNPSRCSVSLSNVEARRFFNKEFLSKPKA
procedureText: Inhibitory concentration against cystolic phospholipase A2 alpha receptor (c-PLA2 alpha) using coumarin assay
pIC50: −log10 of the molar value.
observationType: pIC50

Reference set (3 entries):
| sampleSmiles | observationType | observedMeasurement |
| --- | --- | --- |
| COc1cc(C(=O)O)ccc1Cc1cn(C(c2ccccc2)c2ccccc2)c2ccc(C)cc12 | pIC50 | 6.05 |
| COc1cc(C(=O)O)ccc1Cc1cn(C(c2ccccc2)c2ccccc2)c2ccc([N+](=O)[O-])cc12 | pIC50 | 6.40 |
| COc1cc(C(=O)O)ccc1Cc1cn(C(c2ccccc2)c2ccccc2)c2ccc(Br)cc12 | pIC50 | 6.22 |

P = COc1cc(C(=O)O)ccc1Cc1cn(C(c2ccccc2)c2ccccc2)c2ccc(C#N)cc12
Q = COc1cc(C(=O)O)ccc1Cc1cn(C(c2ccccc2)c2ccccc2)c2ccc(Cl)cc12
// which entry has the larger pIC50 value, P or Q ? Field: selected label. Fill in the label of the entry you choose.
Q

* * *

procedureText: Oral bioavailability in rat (dose 10 mg/kg)
Type: ADME, organism-based
details: in vivo
observationType: bioavailability (%)

| sampleSmiles | unitsLabel | bioavailability |
| --- | --- | --- |
| COc1cc(C(=O)O)ccc1Cc1cn(C(c2ccccc2)c2ccccc2)c2ccc(Cl)cc12 | % | 22 |

1 = COc1cc(C(=O)O)ccc1Cc1cn(C(c2ccccc2)c2ccccc2)c2cc(Cl)ccc12
2 = COc1cc(C(=O)O)ccc1Cc1cn(C(c2ccccc2)c2ccccc2)c2ccc(C#N)cc12
// which entry has the larger bioavailability value, 1 or 2 ? Field: selected label. Fill in the label of the entry you choose.
1

P = COc1cc(C(=O)O)ccc1Cc1cn(C(c2ccccc2)c2ccccc2)c2ccc(Br)cc12
Q = COc1cc(C(=O)O)ccc1Cc1cn(C(c2ccccc2)c2ccccc2)c2ccc(C)cc12
// which entry has the larger bioavailability value, P or Q ? Field: selected label. Fill in the label of the entry you choose.
Q
(Q: 38%, P: 16%)

* * *

Species on record: Homo sapiens
procedureText: Inhibitory concentration against arachidonic acid release determined in human neutrophils PMN assay
Type: functional
observationType: IC50 (nM)

Reference set (2 entries):
| sampleSmiles | IC50, nM |
| --- | --- |
| COc1cc(C(=O)O)ccc1Cc1cn(C(c2ccccc2)c2ccccc2)c2ccc(C#N)cc12 | 1300 |
| COc1cc(C(=O)O)ccc1Cc1cn(C(c2ccccc2)c2ccccc2)c2ccc(Cl)cc12 | 1800 |

P = COc1cc(C(=O)O)ccc1Cc1cn(C(c2ccccc2)c2ccccc2)c2ccc([N+](=O)[O-])cc12
Q = COc1cc(C(=O)O)ccc1Cc1cn(C(c2ccccc2)c2ccccc2)c2ccc(Br)cc12
From the items above, decide which of P and Q has the lower IC50 reading. Field: selected label. Fill in the label of the entry you choose.
Q
